Below, each entry is listed with its recorded isobutanol in aqueous layer.
Test: Isobutanol partitioning between solvent and water (Kd, butanol partition coefficient)
Conditions: aqueous 2.0 wt % isobutanol, half its mass of solvent (5 g/2.5 g or 1 g/0.5 g); HPLC
Report as a plain number; the unit wt % is understood.

Molecule	isobutanol in aqueous layer [wt %]
CCN(CC)C(=O)c1cccc(C)c1 [DEET, diethyl m-toluamide]	0.34
CCCCN(CCCC)C(=O)N(CCCC)CCCC	0.417
CC(C)CC(C)CC(O)CC(C)C (stereo not shown)	0.53

Now consider a different molecule.
For the molecule Cc1ccc(C(C)C)cc1O , what isobutanol in aqueous layer is on record? 0.22

----------
Assay: Isobutanol partitioning between solvent and water (Kd, butanol partition coefficient)
Conditions: aqueous 2.0 wt % isobutanol, half its mass of solvent
Recorded metric: isobutanol in organic layer, calculated by mass balance (wt %)
Report as a plain number; the unit wt % is understood.

Study these solved cases before continuing.
Compound	Numeric readout
CCCCN(CCCC)C(=O)N(CCCC)CCCC	3.06
CC(C)CC(C)CC(O)CC(C)C (stereo not shown)	2.87
Cc1ccc(C(C)C)cc1O	3.42

Now consider a different compound.
For the compound CCN(CC)C(=O)c1cccc(C)c1 [DEET, diethyl m-toluamide] , what isobutanol in organic layer, calculated by mass balance is on record? 3.17

----------
Test: Equilibrium moisture content of solvent
Type: physicochemical
Conditions: Table 1
Recorded metric: Moisture Content (wt %)
Report as a plain number; the unit wt % is understood.

Compound	Moisture Content (wt %)
Cc1ccc(C(C)C)cc1O	2
CC(C)CC(C)CC(O)CC(C)C (stereo not drawn)	0.2
CCCCC(CC)CO (stereo not drawn)	2

Now consider a different compound.
For the compound CCCCN(CCCC)C(=O)N(CCCC)CCCC , what Moisture Content (wt %) is on record? 0.9
